# System: OVCAR-4
# assay_info: NCI tumour cell line growth inhibition, 48 h
The source made the active and inactive calls. Rule as the data show it: active = GI50 up to about 1.1 µM and inactive = higher.
Log the outcome using a class from t for active, f for inactive

Task: What did this assay record as the result for `O=C(O)CCSC1=NCCN1` ?
Result: f

Task: Entry to check: N#Cc1ccccc1NC(=O)C(O)C(O)C(O)C(O)C=O (stereo not given)
Result: f

Task: Same for `COc1ccc(C(=O)c2c(C(C(=O)c3ccc(OC)cc3)C(=O)c3ccc(OC)cc3)n(C(=O)c3ccc(OC)cc3)c3ccccc23)cc1`
Result: f

Task: Input `Cc1oc2nc(N(C)C)nc(NN)c2c1C`
Result: f

Task: Then `CC1=C(c2cc(C(=O)Nc3ccc(Cl)c(Cl)c3)nc(N)n2)Sc2ccccc2N1` ?
Result: f

Task: Next entry: `CC1=C(C(=O)N[C@@H](Cc2ccccc2)C(=O)O)N2C(=O)[C@@H](NC(=O)[C@@H](N)CC(C)C)[C@H]2SC1`
Result: f

Task: Then this compound: CCN(CC)CCCC(C)Nc1c2cc(OC)cc(C)c2nc2c(C)c(Cl)ccc12 (stereo not given)
Result: f

Task: Also CCOC(=O)C(C)Sc1nnc(COc2ccccc2OC)n1-c1ccccc1 (stereo not given) , if possible.
Result: f

Task: Can you check `O=C1OCC/C1=C/c1ccc(/N=N/c2c(O)ccc3ccccc23)cc1` next?
Result: f

Task: Query `CC(=O)OCc1ncccc1C(OC(C)=O)OC(C)=O` next
Result: f

Task: Item: `Cc1ccc(S(=O)(=O)O)cc1.c1cc2c(c(NC3=NCCN3)c1)CCCC2`
Result: f

Task: // query: `O=C1C(c2c(O)[nH]c3ccccc23)=Nc2ccc(Br)cc21`
Result: f

Task: Here is the next compound: O=C1OC2(c3ccccc31)c1cc(I)c(O)c(I)c1Oc1c2cc(I)c(O)c1I [ERYTHROSINE]
Result: f

Task: Thanks! And COc1cc(C2c3cc4c(cc3OC(NNc3ccccc3)C2C)OCO4)cc(OC)c1O (stereo not given) ?
Result: f

Task: Same question for `CCCCOC(=O)NC(=O)c1cn(CCCOC(=O)CCCCCCCCC(=O)OCCCn2cc(C(=O)NC(=O)OCCCC)c(=O)n(C)c2=O)c(=O)n(C)c1=O` please.
Result: f

Task: Then CC(=O)Nc1c2sscc-2n(C)c1=O [THIOLUTIN] ?
Result: f

Task: Note, next up: `Cn1c(=O)c2c(nc3n(CCCCl)c(=O)ccn23)n(C)c1=O`
Result: f

Task: Entry COc1cc(O)c(C(=O)C2Cc3ccccc32)c(OC)c1 (stereo not given) please
Result: f

Task: Then `CN(C)CCCN1c2ccccc2CCc2cccc([N+](=O)[O-])c21` ?
Result: f

Task: Let us now turn to COc1cccc2c1C(=O)c1c(O)c3c(c(O)c1C2=O)C[C@@](O)(C(=O)CO)CC3OC1CC(NCCCCC(OC(C)=O)OC(C)=O)C(O)C(C)O1 (stereo not given in full)
Result: t

====

# System: OVCAR-8
# assay_info: NCI tumour cell line growth inhibition, 48 h
The source made the active and inactive calls. No stated cut-off is given here; in the data, active = GI50 up to about 1.1 µM and inactive = higher.
Outcome (select one): TRUE = active, FALSE = inactive

INSERT INTO measurements (compound, label) VALUES
  ('CCNC(=O)Cc1nc2c(N)ncnc2n1C1OC(CO)C(O)C1O (stereo not given)', 'FALSE');

Task: How did this test come out for `Nc1ccc(Oc2ccc(C3(c4ccc(Oc5ccc(N)cc5)cc4)C4CC5C6CC7CC5C3C(C7)C6C4)cc2)cc1` ?
Result: FALSE

Task: And what about the compound CC(C)[C@]12O[C@H]1[C@@H]1O[C@]13[C@]1(O[C@H]1C[C@H]1C4=C(CC[C@@]13C)C(=O)OC4)[C@@H]2O [TRIPTOLIDE] ?
Result: TRUE

Task: Quick one: CCN(CC)CCCC(C)Nc1c2cc(OC)cc(C)c2nc2c(C)c(Cl)ccc12 (stereo not given)
Result: FALSE

Task: Record: CCOC(=O)C(C)Sc1nnc(COc2ccccc2OC)n1-c1ccccc1 (stereo not given)
Result: FALSE

Task: Same read-out for `[N-]=[N+]=Nc1ccc(CNc2cc(=O)[nH]c(=O)[nH]2)cc1` ?
Result: FALSE

Task: Another compound to check: `Cc1c(-c2ccccc2)[nH]c2ccc(Cl)cc2c1=O`
Result: FALSE

====

# GI50 listing for each entry below
# Tested on: UACC-257
# assay_info: NCI tumour cell line growth inhibition, 48 h
Calls of active or inactive are those of the source. Rule as the data show it: active = GI50 up to about 1.1 µM and inactive = higher.

INSERT INTO measurements (compound, reported) VALUES
  ('CC(=O)OC1COC(Nc2nc(N)n(C)c(=O)c2N=O)C(OC(C)=O)C1OC(C)=O (stereo not given)', '> 10 µM (inactive)');

Task: Looking for the measured GI50 of CCNC(=O)Cc1nc2c(N)ncnc2n1C1OC(CO)C(O)C1O (stereo not given) , can you help?
Result: > 100 µM (inactive)

Task: Moving on to the next compound: `C/C=C(/C)C(=O)O[C@@H]1c2c(C)coc2C[C@H]2CC[C@H](O)[C@H](C)[C@]21C`
Result: 34.2 µM (inactive)

Task: Continue with `c1ccc2c3ccn4ccc5c6ccccc6[nH]c5c4c-3nc2c1`
Result: 2 µM (inactive)

Task: Also `OCCCCCNc1c2ccccc2nc2ccccc12` ?
Result: 2.02 µM (inactive)

Task: Try `C=CCN1C[C@H](C)N([C@H](c2ccc(C(=O)NC(CC)CC)cc2)c2cccc(OC)c2)C[C@H]1C` next.
Result: 26.2 µM (inactive)

Task: O=C1CCC2(CC1CC(Sc1ccccc1)Sc1ccccc1)OCCO2 (stereo not given) , same question.
Result: 36.8 µM (inactive)

Task: Thanks! And `O=C1OCC/C1=C/c1ccc(/N=N/c2c(O)ccc3ccccc23)cc1` ?
Result: 20.7 µM (inactive)

Task: What do we get for COC(=O)/C=C(\C(=O)OC)C1C(=O)Oc2c(C)c(=O)c3ccccc3n21 (stereo not given) ?
Result: > 100 µM (inactive)

Task: Could you do the same for OC(C1CCC=NN1C(O)(C(F)(F)F)C(F)(F)F)(C(F)(F)F)C(F)(F)F (stereo not given) , please?
Result: > 10 µM (inactive)

====

# Test system: OVCAR-5
# assay_info: NCI tumour cell line growth inhibition, 48 h
Activity calls are given as the source filed them. Cut-off read from the data, not from the text of the source: active = GI50 up to about 1.1 µM and inactive = higher.
Write down the outcome that applies. Available outcomes: active, inactive

The following molecules have reported results that may help.
INSERT INTO measurements (molecule, label) VALUES
  ('Nc1cc2c(cc1[N+](=O)[O-])[nH]c1c(-c3ccccc3)nccc12', 'inactive'),
  ('NC(CCCCP(=O)(O)O)C(=O)O (stereo unspecified)', 'inactive'),
  ('Cc1ccc(S(=O)(=O)O)cc1.c1cc2c(c(NC3=NCCN3)c1)CCCC2', 'inactive'),
  ('CC1=NOC(C)(O)/C1=N/O (stereo unspecified)', 'inactive'),
  ('N=C(c1ccc(-c2cn3cc(C(=N)N4CCCC4)ccc3n2)cc1)N1CCCC1', 'inactive'),
  ('OCCCCCNc1c2ccccc2nc2ccccc12', 'inactive'),
  ('O=c1cc(N2CCCC2)[nH]c(=O)n1-c1cccc(Cl)c1', 'inactive'),
  ('COc1ccc2cc3n(c(=O)c2c1)CCc1c-3cc(OC)c(OC)c1OC', 'inactive');

Task: Please indicate how the test categorized `O=C1c2ccccc2-c2c1c1ccccc1c(=O)n2CCO` .
Result: inactive

Task: What about `CCOC(=O)Nc1cc2c(c(N)n1)N=C(c1ccc(Cl)cc1Cl)CN2` ?
Result: active

Task: Do the same for CC(=O)OC1COC(Nc2nc(N)n(C)c(=O)c2N=O)C(OC(C)=O)C1OC(C)=O (stereo unspecified) please
Result: inactive

====

# GI50 values compiled below
# Tested on: SNB-78
# assay_info: NCI tumour cell line growth inhibition, 48 h
Active and inactive are the calls of the source. Rule as the data show it: active = GI50 up to about 1.1 µM and inactive = higher.

Task: GI50 lookup needed for `Cc1cc(CS(=O)(=O)/C=C/c2ccccc2[N+](=O)[O-])c(CS(=O)(=O)/C=C/c2ccccc2[N+](=O)[O-])cc1C` , thanks.
Result: 23 µM (inactive)

Task: Input CCOC(=O)C(C)Sc1nnc(COc2ccccc2OC)n1-c1ccccc1 (centres undefined)
Result: > 100 µM (inactive)

Task: Same again, this time with CC(=O)OCC1OC(Nc2nc(O)n(C)c(=O)c2-c2csc(N)n2)C(OC(C)=O)C(OC(C)=O)C1OC(C)=O (centres undefined)
Result: > 100 µM (inactive)

Task: Param item: `COC(=O)C1=C(C)N(NC(=O)OC(C)(C)C)C(=O)C1=P(c1ccccc1)(c1ccccc1)c1ccccc1`
Result: > 100 µM (inactive)

====

# Tested on: RPMI-8226
# assay_info: NCI tumour cell line growth inhibition, 48 h
The source made the active and inactive calls. Cut-off read from the data, not from the text of the source: active = GI50 up to about 1.1 µM and inactive = higher.
Quick list: GI50 per entry.

INSERT INTO measurements (molecule, experimental_target, reported) VALUES
  ('O=C(Cc1ccccc1)Nn1c(-c2ccccc2)nc2ccccc2c1=O', 'RPMI-8226', '> 100 µM (inactive)');

Task: Give its GI50 value. Item: CCOC(=O)c1c(-c2ccc(O)c(OC)c2)c(C#N)c(=S)n(C2OC(CO)C(O)C(O)C2O)c1-c1ccccc1 (stereo not given)
Result: 72.3 µM (inactive)

Task: Similarly, COc1nc(NC2OCC(OC(C)=O)C(OC(C)=O)C2OC(C)=O)c(-c2csc(N)n2)c(=O)n1C (stereo not given) ?
Result: > 100 µM (inactive)

Task: Now this one: `CC1=NC(=Cc2ccccc2O)C(=O)N1n1c(-c2ccccc2)nc2ccccc2c1=O`
Result: 48.5 µM (inactive)

Task: Moving on to `OCCOc1ccccc2cccc1-2`
Result: 61.8 µM (inactive)

Task: Thanks! And CC(=O)OC(CCC1(C)OC1COc1ccc(CCNC(=O)C=C(C)C)cc1)C(C)(C)OC(C)=O (stereo not given) ?
Result: 13.1 µM (inactive)

Task: What about this molecule? CCOC(=O)c1cc(C2CCN(Cc3ccccc3)C2=O)c(C(=O)/C=C(/C)N)[nH]1 (stereo not given)
Result: > 100 µM (inactive)

Task: Lookup CCC1C2Cc3ccc(O)cc3C1(CC)CCN2C (stereo not given)
Result: > 100 µM (inactive)

Task: Next entry: `CC1=C(C(=O)N[C@@H](Cc2ccccc2)C(=O)O)N2C(=O)[C@@H](NC(=O)[C@@H](N)CC(C)C)[C@H]2SC1`
Result: > 100 µM (inactive)

Task: How about this molecule: `CC(C)Cn1cnc2c(Sc3c([N+](=O)[O-])ncn3C)nc(N)nc21`
Result: > 52.7 µM (inactive)

Task: Also CCOC1=C2C(=O)OC(=O)C2C2CCCCC2=C1 (stereo not given) ?
Result: > 100 µM (inactive)

Task: What do you have for C/C=C\C(CC(=O)NCCC1CN(S(=O)(=O)C(F)(F)F)c2ccccc21)CC(=O)OC (stereo not given) ?
Result: 31.8 µM (inactive)

Task: Input [O-][S+](Cc1cc2c(cc1Br)OCO2)c1ccccc1 (stereo not given)
Result: 24.8 µM (inactive)

Task: And for `Cn1cnc([N+](=O)[O-])c1Sc1nccc(O)n1` ?
Result: > 100 µM (inactive)

Task: Same question for NC(CCCCP(=O)(O)O)C(=O)O (stereo not given) please.
Result: > 100 µM (inactive)
